test: growth rescue of sdo1-depleted yeast, primary screen, S. cerevisiae, bone marrow failure model (AID 817);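 note: z-score against mean and SD of all compound wells on the same plate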; settings: S. cerevisiae sdo1-depleted JHY4D growth rescue, OD600 30 h; at 10 µM; hits give high values; pdr5 snq2 efflux-pump mutant strain
Screen size: about 140,000 compounds; about 300 (0.21%) were called active. For the sample, actives were picked, then their nearest neighbours and some compounds at random.
READOUT_LABEL: z-score
# output: bare number, no unit

CCOc1cc(NC(=S)NCCCOC)c(OCC)cc1NC(=O)c1ccco1 | 0.22

Identify measured z-score associated with O=C(COC(=O)c1ccc(Oc2ccccc2)cc1)Nc1nnc(-c2ccccc2)o1
0.36

Identify measured z-score associated with O=C(N/N=C/c1ccc2c(c1)OCO2)c1ccc(Cn2cc([N+](=O)[O-])cn2)o1
0.69

Identify measured z-score associated with CCOc1ccc(S(=O)(=O)N/N=C(\C)c2ccc(Cl)c(Cl)c2Cl)cc1
1.17

Identify measured z-score associated with COc1cccc(-c2nnc(NC(=O)c3ccc(S(=O)(=O)N(CC(C)C)CC(C)C)cc3)o2)c1
5.73

Identify measured z-score associated with CCOC(=O)C1CCN(C(=O)c2ccccc2N(C)S(=O)(=O)c2ccccc2)CC1
0.01
